- assayed system: T1, DLL3 (ELISA DLL3)
- T1 construct: also called DLL3 protein in ELISA
- T1 chain: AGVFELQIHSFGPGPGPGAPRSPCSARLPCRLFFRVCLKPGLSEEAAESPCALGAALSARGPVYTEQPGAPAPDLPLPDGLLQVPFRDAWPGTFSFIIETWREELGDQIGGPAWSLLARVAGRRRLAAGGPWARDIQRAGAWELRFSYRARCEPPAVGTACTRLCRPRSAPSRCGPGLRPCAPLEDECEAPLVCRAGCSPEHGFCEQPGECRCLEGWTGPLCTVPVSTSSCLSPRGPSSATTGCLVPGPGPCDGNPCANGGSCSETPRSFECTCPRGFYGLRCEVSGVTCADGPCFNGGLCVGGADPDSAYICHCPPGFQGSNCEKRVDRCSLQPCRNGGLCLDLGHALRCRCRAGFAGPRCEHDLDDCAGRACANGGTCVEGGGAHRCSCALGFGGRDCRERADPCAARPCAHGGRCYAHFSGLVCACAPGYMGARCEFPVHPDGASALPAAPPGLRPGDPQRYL
- test: ELISA, ratio of the signal on DLL3 to the signal on the control
Here the recorded DLL3 / control is given for each entry.
Answer with a bare number; do not write a unit.

Name the recorded DLL3 / control for 3HCE4 anti-DLL3 VHH (VHH, In the binning assay it was used as a periplasmic extract) VHH: QVQLQESGGGLVQAGASLKLSCAVSGRAGSSYDMGWLRQAPGKEREFVAIITWSGNTAYKDSVKGRFIISRDNAKNTVYLEMNSLAPEDTAVYYCAAALSEKKYEYWGQGTQVTVSS .
65.7

Name the recorded DLL3 / control for 3HCE56 anti-DLL3 VHH (VHH, In the binning assay it was used as a periplasmic extract) VHH: QVQLQESGGGLVQAGGSLRLSCAASGRTFSVDAMGWLRQAPGKEREFVVVIDWTGGSTAYADSVKGRFTISRDNARNTVYLQMNNLKPEDTGVYYCAARERSRTAYDYWGQGTQVTVSS .
18.5
